Each recorded value in this set is attributed to PubChem BioAssay.

assay: viability profiling in RPMI8226 myeloma cells – cell-based, resazurin fluorescence, basal, 24 h, PK04 Diversity Set, profiling panel (AID 1180); conditions: higher = more signal;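 note: RPMI8826 multiple myeloma cell line at 5000 cells per well; test concentration not given here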
Observed Property: z-score

# example entries with known answers
[[record]]
compound = "[N-]=[N+]=Nc1ccccc1[C@H]1OC(c2ccc(OCCCO)cc2)=N[C@@]1(Cc1ccccc1)C(=O)NCCN1CCOCC1"
recorded_measurement = -1.74

[[record]]
compound = "O=C1C2C=CC(C(O)c3cccc(O)c3)N(Nc3ccc([N+](=O)[O-])cc3)C2C(=O)N1c1ccccc1 (stereo not given)"
recorded_measurement = -0.55

[[record]]
compound = "CC#CCO[Si](C#Cc1ccccc1)(C(C)C)C(C)C"
recorded_measurement = -0.67

[[record]]
compound = "C=CC[C@@H](OC(=O)Nc1ccc(OC)cc1)c1ccc(O)c(F)c1"
recorded_measurement = -0.895


Now examine the next entry.
Quick check: z-score of `CCOC(=O)C[C@H]1[C@H](OC(=O)c2ccc(-c3ccccc3)cc2)[C@@H](NC(=O)CC(C)C)c2cc(OCCCO)ccc2N1C(=O)c1ccc2ccccc2n1` ?
0.517
